target: METTL3/14 (Homo sapiens); construct: The enzyme used was full-length his-tagged METTL3; His; made in house; test: METTL3/14 methyltransferase assay (METTL3_14 RFMS, RapidFire mass spectrometry); type: biochemical; conditions: 5 nM METTL3/14, 0.2 μM RNA substrate, 0.5 μM SAM; lower limit of the assay IC50=5 nM; Compounds 266-351; read-out: METTL3_14 RFMS IC50
measuredAttribute: IC50 (nM)

Solved cases below.
| compound | targetUnderTest | measuredAttribute | endpointValue |
| --- | --- | --- | --- |
| O=C1CC(c2ccc3nc(CNC(=O)c4cc(=O)n5ccccc5n4)cn3c2)NC(C2CCCCC2)C1 (mixture of isomers) | METTL3/14 (Homo sapiens) | IC50 | 122 |
| OC1(CNCc2ccc3nc(Cn4cc(-c5cc(Cl)cc6[nH]ncc56)nn4)cn3c2)CCC1 | METTL3/14 (Homo sapiens) | IC50 | 5.92 |
| c1cc(-c2cn(Cc3cn4cc(CNCC5CCC5)ccc4n3)nn2)c2cn[nH]c2c1 | METTL3/14 (Homo sapiens) | IC50 | 5.78 |
| O=C(NCc1cn2cc(CNC3CC34CCC4)ccc2n1)c1cc(=O)n2ccccc2n1 (centres unmarked) | METTL3/14 (Homo sapiens) | IC50 | 13.1 |
| COc1cc(Br)cc2c1OCC(c1ccc3nc(CNC(=O)c4cc(=O)n5ccccc5n4)cn3c1)NC2 (centres unmarked) | METTL3/14 (Homo sapiens) | IC50 | 1700 |
| O=C(NCc1cn2cc(CNCC3CC4(CC4)C3)ccc2n1)c1cc(=O)n2ccccc2n1 | METTL3/14 (Homo sapiens) | IC50 | 27.6 |

I. CC(C)(C)CNCc1ccc2nc(Cn3cc(-c4cc(Cl)cc5[nH]ncc45)nn3)cn2c1
II. COC1(CNCc2ccc3nc(CNC(=O)c4cc(=O)n5ccccc5n4)cn3c2)CCC1
I'd appreciate it if you could identify which of I and II has the greater IC50. Please respond with the label that marks your chosen entry.
II

* * *

biological target: METTL3/14 (Homo sapiens, UniProt Q86U44); construct: The enzyme used was full-length his-tagged METTL3; His; made in house; experiment: METTL3/14 methyltransferase assay (METTL3_14 RFMS, RapidFire mass spectrometry); type: biochemical; settings: 5 nM METTL3/14, 0.2 μM RNA substrate, 0.5 μM SAM; lower limit of the assay IC50=5 nM; Compounds 266-351; read-out: METTL3_14 RFMS IC50
Sequence (Q86U44 whole entry): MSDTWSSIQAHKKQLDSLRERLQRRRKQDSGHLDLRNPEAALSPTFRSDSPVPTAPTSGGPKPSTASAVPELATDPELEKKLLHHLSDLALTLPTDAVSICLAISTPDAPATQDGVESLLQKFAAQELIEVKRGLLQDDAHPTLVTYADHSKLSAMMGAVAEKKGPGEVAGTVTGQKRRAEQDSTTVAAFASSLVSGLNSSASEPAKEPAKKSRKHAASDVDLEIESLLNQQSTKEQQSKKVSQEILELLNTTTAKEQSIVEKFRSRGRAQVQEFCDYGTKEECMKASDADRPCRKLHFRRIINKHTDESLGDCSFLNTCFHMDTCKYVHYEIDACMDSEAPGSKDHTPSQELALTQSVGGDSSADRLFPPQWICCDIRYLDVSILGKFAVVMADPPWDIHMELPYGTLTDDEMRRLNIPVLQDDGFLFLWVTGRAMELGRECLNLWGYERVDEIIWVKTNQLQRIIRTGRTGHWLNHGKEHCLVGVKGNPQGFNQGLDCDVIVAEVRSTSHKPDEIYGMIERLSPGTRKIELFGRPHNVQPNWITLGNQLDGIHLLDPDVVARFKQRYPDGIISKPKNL
Sequence (Q9HCE5 whole entry partner): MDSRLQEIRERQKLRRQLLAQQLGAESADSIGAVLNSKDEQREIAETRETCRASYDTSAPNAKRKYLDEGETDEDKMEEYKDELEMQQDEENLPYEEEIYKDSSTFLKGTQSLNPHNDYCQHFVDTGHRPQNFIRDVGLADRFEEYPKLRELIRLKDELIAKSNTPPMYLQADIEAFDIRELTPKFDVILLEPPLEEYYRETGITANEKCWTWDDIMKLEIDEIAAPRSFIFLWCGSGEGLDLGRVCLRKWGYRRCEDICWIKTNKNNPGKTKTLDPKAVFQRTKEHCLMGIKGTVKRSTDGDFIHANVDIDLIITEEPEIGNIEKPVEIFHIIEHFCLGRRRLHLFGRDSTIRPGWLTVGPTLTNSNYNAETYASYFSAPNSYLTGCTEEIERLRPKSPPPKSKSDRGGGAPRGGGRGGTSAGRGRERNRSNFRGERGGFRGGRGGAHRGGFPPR
pIC50: −log10 of the molar value.
measuredAttribute: pIC50

| compound | targetUnderTest | pIC50 |
| --- | --- | --- |
| c1cc(-n2cc(Cc3cn4ccccc4n3)nn2)c2cn[nH]c2c1 [Example 336] | METTL3/14 (Homo sapiens, UniProt Q86U44) | 5.38 |

1. COc1cc(-c2cn(Cc3cn4cc(CNCC5(O)CCC5)ccc4n3)nn2)c2cn[nH]c2c1 [Example 269]
2. CCC(C)(C)CNCc1ccc2nc(CNC(=O)c3cc(=O)n4ccccc4n3)cn2c1 [Compound 292]
I'd appreciate it if you could identify which of 1 and 2 has the greater pIC50. Please respond with the label that marks your chosen entry.
1

1. O=C(NCc1cn2cc(CNCC3CC4C=CC3C4)ccc2n1)c1cc(=O)n2ccccc2n1 (centres unmarked) [Compound 346]
2. O=C(NCc1cn2cc(CN3CC4CC3CO4)ccc2n1)c1cc(=O)n2ccccc2n1 (centres unmarked) [Compound 349]
3. CC(C)(O)CNCc1ccc2nc(CNC(=O)c3cc(=O)n4ccccc4n3)cn2c1 [Compound 287]
Hello, I need these entries ordered by pIC50, highest reading first. Thanks! Put the labels in the requested order and list them out.
1, 3, 2
(1: 8.11, 3: 7.16, 2: 6.52)

P. COc1ccc2[nH]ncc2c1-c1cn(Cc2cn3cc(CNCC4CCC4)ccc3n2)nn1 [Example 271]
Q. OC1(CNCc2ccc3nc(Cn4cc(-c5ccc(F)c6[nH]ncc56)nn4)cn3c2)CCC1 [Example 308]
I'd appreciate it if you could identify which of P and Q has the greater pIC50. Please respond with the label that marks your chosen entry.
P

* * *

molecular target: METTL3/14 (Homo sapiens, UniProt Q86U44); construct: The enzyme used was full-length his-tagged METTL3; His; made in house; assay: METTL3/14 methyltransferase assay (METTL3_14 RFMS, RapidFire mass spectrometry); type: biochemical; settings: 5 nM METTL3/14, 0.2 μM RNA substrate, 0.5 μM SAM; lower limit of the assay IC50=5 nM; Compounds 1-62; read-out: METTL3_14 RFMS IC50;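 note: recombinant His-tagged METTL3 with FLAG-tagged METTL14 from baculovirus, SAH product quantified by mass spectrometry against isotope-labelled internal standards, 60 min at room temperature, scaled between no-RNA and DMSO-only wells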
pIC50: −log10 of the molar value. Structures can show the parent of a compound that is named as a salt.
measuredAttribute: pIC50

Solved cases below.
| compound | targetUnderTest | pIC50 |
| --- | --- | --- |
| O=C(NCc1cn2cc(CNCC(F)(F)F)ccc2n1)c1cccc2[nH]ncc12 [Compound 46] | METTL3/14 (Homo sapiens, UniProt Q86U44) | 5.66 |
| O=C(NCc1cn2ccc(Br)cc2n1)c1cc(=O)n2ccccc2n1 [Compound 29] | METTL3/14 (Homo sapiens, UniProt Q86U44) | 5.56 |
| O=C(c1cccc2[nH]ncc12)N1CC=C(c2cn3ccccc3n2)C1 [Compound 31] | METTL3/14 (Homo sapiens, UniProt Q86U44) | 5.03 |
| Cc1ccc2nc(CNC(=O)c3cc(=O)c4ccccc4o3)cn2c1 [Compound 12] | METTL3/14 (Homo sapiens, UniProt Q86U44) | 5.85 |
| C=Cc1ccc2nc(CNC(=O)c3cc(=O)n4ccccc4n3)cn2c1 [Compound 58] | METTL3/14 (Homo sapiens, UniProt Q86U44) | 6.52 |
| CC(O)c1ccc2nc(CNC(=O)c3cc(=O)n4ccccc4n3)cn2c1 (centres unmarked) [Compound 57] | METTL3/14 (Homo sapiens, UniProt Q86U44) | 6.15 |

1. COc1ccc2nc(CNC(=O)c3cc(=O)n4ccccc4n3)cn2c1 [Compound 24]
2. O=C(NCc1cn2ccccc2n1)c1cc(=O)n2ccccc2n1 [Compound 26]
I'd appreciate it if you could identify which of 1 and 2 has the greater pIC50. Please respond with the label that marks your chosen entry.
2

A. Cn1cnc(CNc2ccc3nc(CNC(=O)c4cccc5[nH]ncc45)cn3c2)c1 [Compound 33]
B. COc1ccn2cc(CNC(=O)c3cc(=O)n4ccccc4n3)nc2c1 [Compound 25]
Select the item whose pIC50 value is smaller, choosing between A and B . Please respond with the label that marks your chosen entry.
A

I. O=C(NCc1cn2cc(-c3cccc(Cl)c3)ccc2n1)c1cccc2[nH]ncc12 [Compound 36]
II. O=C(NCc1cn2cc(CNCCc3ccccc3)ccc2n1)c1cc(=O)n2ccccc2n1 [Compound 53]
Select the item whose pIC50 value is smaller, choosing between I and II . Please respond with the label that marks your chosen entry.
I

A. O=C(NCc1cn2cc(CO)ccc2n1)c1cc(=O)n2ccccc2n1 [Compound 61]
B. O=C(NCc1cn2cc(CNCCO)ccc2n1)c1cc(=O)n2ccccc2n1 [Compound 52]
C. Cc1ccc2nc(Cc3nnc(-c4cccc5[nH]ncc45)o3)cn2c1 [Compound 62]
D. O=C(NCc1cn2cc(-c3ccn[nH]3)ccc2n1)c1cccc2[nH]ncc12 [Compound 35]
E. O=C(NCc1cn2cc(C(O)c3ccccc3)ccc2n1)c1cccc2[nH]ncc12 (centres unmarked) [Compound 48]
Sort entries by pIC50 from minimum to maximum value. Put the labels in the requested order and list them out.
D, C, E, A, B

I. NCc1ccc2nc(CNC(=O)c3cccc4[nH]ncc34)cn2c1 [Compound 39]
II. O=C(NCc1cn2cc(F)ccc2n1)c1cccc2[nH]ncc12 [Compound 6]
I'd appreciate it if you could identify which of I and II has the greater pIC50. Please respond with the label that marks your chosen entry.
I
(I: 5.83, II: 5.04)

A. CC(O)c1ccc2nc(CNC(=O)c3cccc4[nH]ncc34)cn2c1 (centres unmarked) [Compound 47]
B. O=C(NCc1cn2ccc(F)cc2n1)c1cccc2[nH]ncc12 [Compound 5]
C. NCc1ccc2nc(CNC(=O)c3cc(=O)n4ccccc4n3)cn2c1 [Compound 50]
D. Cc1ccn2cc(CNC(=O)c3cc(=O)n4ccccc4n3)nc2c1 [Compound 17]
E. O=C(NCc1cn2cc(O)ccc2n1)c1cccc2[nH]ncc12 [Compound 43]
Sort entries by pIC50 from minimum to maximum value. Put the labels in the requested order and list them out.
B, A, D, E, C
(B: 5.02, A: 5.40, D: 5.65, E: 5.89, C: 6.57)

P. O=C(NCc1cn2cc(Br)ccc2n1)c1cccc2[nH]ncc12 [Compound 3]
Q. Cc1ccc2nc(COC(=O)c3cccc4[nH]ncc34)cn2c1 [Compound 41, hydrochloride]
R. O=C(NCc1cn2cc(F)ccc2n1)c1cc(=O)n2ccccc2n1 [Compound 22]
Hello, I need these entries ordered by pIC50, highest reading first. Thanks! Put the labels in the requested order and list them out.
Q, R, P

I. COc1ccn2cc(CNC(=O)c3cccc4[nH]ncc34)nc2c1 [Compound 7]
II. O=C(NCc1cn2cc(CNCCCc3ccccc3)ccc2n1)c1cc(=O)n2ccccc2n1 [Compound 55]
Select the item whose pIC50 value is smaller, choosing between I and II . Please respond with the label that marks your chosen entry.
I
